Each item that follows carries a reported TGR inhibition visualized by TRFS-Green, Average.
# Test system: TGR in newly transformed schistosomula (NTS)
# test protocol: TGR inhibition in NTS with TRFS-Green fluorescent probe;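 further: untreated reference is NTS exposed to TRFS-Green probe alone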
# Type: cell-based, S. mansoni
# experimental parameters: NTS, 1hr, 30 µM
readout: TGR inhibition visualized by TRFS-Green, Average

{"chemical string": "C[C@@H]1[C@H]2C[C@@H](C[C@H]1NCc1nc3ccccc3n1C1CCCCCC1)C2(C)C", "experimental value": 7413.5}
{"chemical string": "CCc1ccccc1-c1nc(CN[C@@H]2C[C@@H]3C[C@H]([C@H]2C)C3(C)C)c(C)o1", "experimental value": 9753}
{"chemical string": "Cc1oc(-c2ccc3c(c2)OCO3)nc1CN[C@@H]1C[C@@H]2C[C@H]([C@H]1C)C2(C)C", "experimental value": 9252.5}
{"chemical string": "C[C@@H]1[C@H]2C[C@@H](C[C@H]1NCc1nc3ccccc3n1C)C2(C)C", "experimental value": 10618.5}
{"chemical string": "Cc1oc(C2CCCCC2)nc1C(=O)N[C@@H]1C[C@@H]2C[C@H]([C@H]1C)C2(C)C", "experimental value": 10431.5}
{"chemical string": "Cc1oc(C2CCCCC2)nc1CN[C@@H]1C[C@@H]2C[C@H]([C@H]1C)C2(C)C", "experimental value": 10356}

* * *

Each item that follows carries a reported Reduction (%) in GSH/GSSG ratio.
# System: S. mansoni adult worms
# test protocol: GSH/GSSG ratio in ex vivo adult worms
# Type: cell-based
# experimental parameters: 3 hr; third data set
readout: Reduction (%) in GSH/GSSG ratio

{"compound": "CC1C(NCc2cn(C3OCC(O)C(O)C3O)c3ccccc23)CC2CC1C2(C)C (centres unmarked)", "assayed system": "S. mansoni adult worms", "experimental value": "10.4658%"}
{"compound": "C#CCN(Cc1nc(-c2ccccc2)oc1C)[C@@H]1C[C@@H]2C[C@H]([C@H]1C)C2(C)C", "assayed system": "S. mansoni adult worms", "experimental value": "8.6517%"}
{"compound": "Cc1oc(-c2ccccc2)nc1CN[C@@H]1C[C@@H]2C[C@H]([C@H]1C)C2(C)C", "assayed system": "S. mansoni adult worms", "experimental value": "70.1019%"}
{"compound": "Cc1oc(-c2ccc3c(c2)OCO3)nc1CN[C@@H]1C[C@@H]2C[C@H]([C@H]1C)C2(C)C", "assayed system": "S. mansoni adult worms", "experimental value": "78.3034%"}
{"compound": "C[C@@H]1[C@H]2C[C@@H](C[C@H]1NCc1nc3ccccc3n1C1CCCCCC1)C2(C)C", "assayed system": "S. mansoni adult worms", "experimental value": "20.8885%"}

* * *

# test protocol: Cytotoxicity in mammalian cells (Cell Titer Glo)
# Format: cell-based
# experimental parameters: African green monkey; Vero cells, 10 µM, relative to untreated control
Each item that follows carries a reported viability at 24 h, 10 µM.

{"molecule": "C[C@@H]1N=C(c2ccccc2Cl)c2cc([N+](=O)[O-])ccc2NC1=O [MZM, meclonazepam, reference compound]", "viability at 24 h, 10 µM [%]": 98.1}
{"molecule": "CC1C(NCc2cn(C3OCC(O)C(O)C3O)c3ccccc23)CC2CC1C2(C)C (stereo not drawn)", "viability at 24 h, 10 µM [%]": 90.7}
{"molecule": "O=C(C1CCCCC1)N1CC(=O)N2CCc3ccccc3C2C1 (stereo not drawn)", "viability at 24 h, 10 µM [%]": 98.3}
